Cited source for all entries: paper PMC3735939

- assay-overview: In vivo kinetics of FA incorporation and turnover in brain phospholipids (intravenous radiotracer infusion, kinetic model)
- Design: species or system rat
- condition-context: ChoGpl; MEP
measured-endpoint: Jin net incorporation rate from plasma unesterified FA (nmol/g/day)

compound	reported
CC/C=C\C/C=C\C/C=C\C/C=C\C/C=C\CCCCCC(=O)O [EPA→n-3 DPA]	1.4

[I] CC/C=C\C/C=C\C/C=C\C/C=C\C/C=C\C/C=C\CCC(=O)O [EPA→DHA]
[II] CC/C=C\C/C=C\C/C=C\C/C=C\C/C=C\C/C=C\CCC(=O)O [DHA, docosahexaenoic acid]
Query: Which value of Jin net incorporation rate from plasma unesterified FA is smaller, the one for I or the one for II ? Could you answer with the label of the item you picked?
Result: I
(I: 0.23 nmol/g/day, II: 4.3 nmol/g/day)
